experiment: in vivo; details: rat, iv
Reported property: Vd

Requested field: Vd. Item: O=C(NC[C@@H](O)CN1CCC(Oc2ccc(Cl)c(Cl)c2)CC1)c1c[nH]c(=O)c2cc(F)ccc12
6.4 L/kg

----------
# hepatocyte CLint values compiled below
assay: in vitro; conditions: rat, hepatocytes
Reply numerically in µL/min/1e6 cells, unit not repeated.

See these solved cases before continuing.
[
  {
    "Structure smiles": "O=C(NC[C@@H](O)CN1CCC(Oc2ccc(Cl)c(Cl)c2)CC1)c1c[nH]c(=O)c2ccc(F)cc12",
    "Units symbol": "µL/min/1e6 cells",
    "hepatocyte CLint": 5
  },
  {
    "Structure smiles": "CC1(O)CN(S(=O)(=O)c2ccc3c(C(=O)NC[C@@H](O)CN4CCC(Oc5ccc(Cl)c(Cl)c5)CC4)c[nH]c(=O)c3c2)C1",
    "Units symbol": "µL/min/1e6 cells",
    "hepatocyte CLint": 3
  }
]

Fill in the blank: the reported hepatocyte CLint of CS(=O)(=O)c1ccc2c(C(=O)NC[C@@H](O)CN3CCC(Oc4ccc(Cl)c(Cl)c4)CC3)c[nH]c(=O)c2c1 is ____.
3

hepatocyte CLint lookup needed for N#Cc1ccc(OC2CCN(C[C@H](O)CNC(=O)c3c[nH]c(=O)c4ccccc34)CC2)cc1 , thanks.
6

Can you look up the measured hepatocyte CLint of N#Cc1ccc(OC2CCN(C[C@H](O)CNC(=O)c3c[nH]c(=O)c4ccccc34)CC2)cc1Cl for me?
10

----------
Listed compounds paired with reported logD
test: physchem; conditions: octanol/water
Output: the number by itself.

[
  {
    "Structure smiles": "CC1(O)CN(S(=O)(=O)c2ccc3c(C(=O)NC[C@@H](O)CN4CCC(Oc5ccc(Cl)c(Cl)c5)CC4)c[nH]c(=O)c3c2)C1",
    "Reported property": "logD",
    "Value": 2.5
  }
]

Using the record for O=C(NC[C@@H](O)CN1CCC(Oc2ccc(Cl)c(Cl)c2)CC1)c1c[nH]c(=O)c2cc(F)ccc12 , report its logD.
3.2

----------
test: in vitro; conditions: human, liver microsomes
Each item that follows carries a reported microsomal CLint.

Examples with answers:
[
  {
    "Structure smiles": "CC1(O)CN(S(=O)(=O)c2ccc3c(C(=O)NC[C@@H](O)CN4CCC(Oc5ccc(Cl)c(Cl)c5)CC4)c[nH]c(=O)c3c2)C1",
    "microsomal CLint": "18 µL/min/mg"
  },
  {
    "Structure smiles": "Cc1c(Cl)ccc(OC2CCN(C[C@H](O)CNC(=O)c3c[nH]c(=O)c4ccc(S(C)(=O)=O)cc34)CC2)c1Cl",
    "microsomal CLint": "< 3 µL/min/mg"
  },
  {
    "Structure smiles": "N#Cc1ccc(OC2CCN(C[C@H](O)CNC(=O)c3c[nH]c(=O)c4ccccc34)CC2)cc1Cl",
    "microsomal CLint": "22 µL/min/mg"
  },
  {
    "Structure smiles": "Cc1c(Cl)ccc(OC2CCN(C[C@H](O)CNC(=O)c3c[nH]c(=O)c4cc(S(C)(=O)=O)ccc34)CC2)c1Cl",
    "microsomal CLint": "13 µL/min/mg"
  },
  {
    "Structure smiles": "O=C(NC[C@@H](O)CN1CCC(Oc2ccc(Cl)c(Cl)c2)CC1)c1c[nH]nc1C(F)(F)F",
    "microsomal CLint": "< 3 µL/min/mg"
  },
  {
    "Structure smiles": "Cc1cc(Cl)ccc1OC1CCN(C[C@H](O)CNC(=O)c2c[nH]c(=O)cc2C(F)(F)F)CC1",
    "microsomal CLint": "3 µL/min/mg"
  },
  {
    "Structure smiles": "O=C(NC[C@@H](O)CN1CCC(Oc2ccc(Cl)c(Cl)c2)CC1)c1c[nH]c(=O)c2ccc(F)cc12",
    "microsomal CLint": "8 µL/min/mg"
  },
  {
    "Structure smiles": "Cc1cc(Cl)ccc1OC1CCN(C[C@H](O)CNC(=O)c2c[nH]c(=O)c3cc(F)ccc23)CC1",
    "microsomal CLint": "9 µL/min/mg"
  },
  {
    "Structure smiles": "Cc1cc(Cl)ccc1OC1CCN(C[C@H](O)CNC(=O)c2c[nH]c(=O)c3cc(S(C)(=O)=O)ccc23)CC1",
    "microsomal CLint": "14 µL/min/mg"
  },
  {
    "Structure smiles": "CN(C)S(=O)(=O)c1ccc2c(C(=O)NC[C@@H](O)CN3CCC(Oc4ccc(Cl)c(Cl)c4)CC3)c[nH]c(=O)c2c1",
    "microsomal CLint": "86 µL/min/mg"
  }
]

State the recorded microsomal CLint for this entry: O=C(NC[C@@H](O)CN1CCC(Oc2ccc(Cl)c(Cl)c2)CC1)c1c[nH]c(=O)c2cc(S(=O)(=O)NC3CC3)ccc12
21 µL/min/mg

Can you share its microsomal CLint? I mean this molecule: Cc1c(Cl)ccc(OC2CCN(C[C@H](O)CNC(=O)c3c[nH]nc3C(F)(F)F)CC2)c1Cl
< 3 µL/min/mg

Would you kindly share the measured microsomal CLint for O=C(NC[C@@H](O)CN1CCC(Oc2ccc(Cl)c(Cl)c2)CC1)c1c[nH]c(=O)c2c(F)cccc12 ?
6 µL/min/mg

Given the entry O=C(NC[C@@H](O)CN1CCC(Oc2ccc(Cl)c(Cl)c2)CC1)c1c[nH]c(=O)cc1C(F)(F)F , report its measured microsomal CLint.
< 3 µL/min/mg

Need microsomal CLint of Cc1cc(Cl)ccc1OC1CCN(C[C@H](O)CNC(=O)c2c[nH]c(=O)c3c(F)cccc23)CC1 , thanks.
9 µL/min/mg

Look up microsomal CLint: Cc1c(Cl)ccc(OC2CCN(C[C@H](O)CNC(=O)c3c[nH]c(=O)cc3C(F)(F)F)CC2)c1Cl
6 µL/min/mg
